Molecular target: HLA-A*32:01
Assay: HLA binding; serotype 1
Conditions: chains peptide; modification not given
recordedEndpoint: IC50 (nM)

> print(dat)
                      binder  recordedendpoint  readoutvalue
1  KQWFLDLPL […, serotype 1]              IC50             8

All figures here come from patent US20190008947A1.
